Assay method text: Combination peptide injection preparation using sodium carbonate solution (Example 5)
Assay type: physicochemical
Design: key: ◯: Dissolved; X: White Turbid
Test parameters: 2 mg each peptide added one after another to 1 ml sodium carbonate solvent
Procedure: In order to prepare an injection preparation containing combination of the peptides shown in Table 1, the 10 types of peptides shown in Table 1 were added in an amount of 2 mg each to 1 ml of the injection solvent containing sodium carbonate as used in Example 1. The addition of each peptide was conducted in the same manner as in Example 4.
Measured metric: Dissolution on successive addition, Example 5 (Na2CO3) (2 mg each)

Chain sequence: RYCNLEGPPI (T cell epitope) [Peptide 5]
Recorded result: ◯
//
Chain sequence: KVYLRVRPLL (T cell epitope) [Peptide 3]
Recorded result: ◯
//
Chain sequence: DYLNEWGSRF (T cell epitope) [Peptide 10]
Recorded result: ◯
//
Chain sequence: EYCPGGNLP (EYCPGGNLF; T cell epitope) [Peptide 8]
Recorded result: ◯
//
Chain sequence: EYYELFVNI (T cell epitope) [Peptide 2]
Recorded result: ◯
//
Chain sequence: IYTWIEDHF (T cell epitope) [Peptide 4]
Recorded result: ◯
//
Chain sequence: VYGIRLEHF (T cell epitope) [Peptide 9]
Recorded result: ◯
//
Chain sequence: SYGVLLWEI (T cell epitope) [Peptide 1]
Recorded result: ◯

# input Give its Dissolution on successive addition, Example 5 (Na2CO3) (2 mg each) value. Item: RFVPDGNRI (T cell epitope) [Peptide 6]
# output ◯

# input Give its Dissolution on successive addition, Example 5 (Na2CO3) (2 mg each) value. Item: SYRNEIAYL (T cell epitope) [Peptide 7]
# output ◯

---

Assay method text: Preparation of single peptide injection preparations using sodium carbonate solution (Example 1)
Assay type: physicochemical
Test parameters: injection solvent containing sodium carbonate
Measured metric: pH of injection preparation, Example 1 (Na2CO3)
Reply: number alone, nothing else.

Some solved entries appear below for comparison.
Chain sequence: IYTWIEDHF (T cell epitope) [Peptide 4]
Recorded result: 8.88
--
Chain sequence: SYRNEIAYL (T cell epitope) [Peptide 7]
Recorded result: 9.18

# input Give its pH of injection preparation, Example 1 (Na2CO3) value. Item: DYLNEWGSRF (T cell epitope) [Peptide 10]
# output 9.35

# input Give its pH of injection preparation, Example 1 (Na2CO3) value. Item: EYYELFVNI (T cell epitope) [Peptide 2]
# output 8.90

---

Assay method text: Stability of lyophilized formulation, peptide content in the vial by HPLC (Example 7)
Format: physicochemical
Test parameters: 25 degrees C., humidity 60%, relative to comparative solution peak area = 100%
Procedure: 107.7 g of L-arginine and 110.4 g of sodium carbonate hydrate were dissolved in 5,500 ml of an injection solvent. Peptide 1, Peptide 2, Peptide 3, and Peptide 4 were dissolved therein in amounts of 6.2 g, 7.5 g, 8.7 g, and 8.0 g, respectively. Thereafter, the total amount of the solution was adjusted to 7,000 ml with the addition of an injection solvent, and a combination peptide solution was obtained. […]
Measured metric: Peptide content in the vial, 6 months (%)
I only need the number, in %, no unit after it.

Some solved entries appear below for comparison.
Chain sequence: IYTWIEDHF (T cell epitope) [Peptide 4]
Measured metric: Peptide content in the vial, 6 months
Recorded result: 99.5
//
Chain sequence: KVYLRVRPLL (T cell epitope) [Peptide 3]
Measured metric: Peptide content in the vial, 6 months
Recorded result: 100.1
//
Chain sequence: EYYELFVNI (T cell epitope) [Peptide 2]
Measured metric: Peptide content in the vial, 6 months
Recorded result: 101.4

# input Give its Peptide content in the vial, 6 months value. Item: SYGVLLWEI (T cell epitope) [Peptide 1]
# output 98.6
